Test system: compound 48/80-induced lethality
Assay: Protection of rats from compound 48/80-induced lethality
Assay type: in vivo, rats of an inbred Wistar strain
Settings: Rattus norvegicus, 4 h, read-out: Compound 48/80 lethality test in rats ED50, s.c. or p.o. 1 h before compound 48/80 0.5 mg/kg i.v.; protection of 50% of animals, survival after 4 hours
recorded metric: ED50
Entry format: amount then unit.

Ask: Any idea what its ED50 is? The compound is c1coc(Cn2c(CC3CCN(CCNc4nc5cnccc5[nH]4)CC3)nc3ccccc32)c1 [Compound 418]
Reply: 0.02 mg/kg

Ask: Follow-up item: Fc1ccc(Cn2c(OC3CCNCC3)nc3ccccc32)cc1 [Compound 66]
Reply: 0.02 mg/kg

Ask: Follow-up item: COc1ccc(CCN2CCC(Cc3nc4ccc(OC)cc4n3Cc3ccc(F)cc3)CC2)cc1 [Compound 273]
Reply: 0.01 mg/kg

Ask: Follow-up item: Cn1c(=O)c2c(ncn2CCN2CCC(Cc3nc4cccnc4n3Cc3ccco3)CC2)n(C)c1=O [Compound 176]
Reply: 0.04 mg/kg
